Data origin: patent US5187305A

In this section we review reported IC50 values for a set of compounds.
# Test system: RABBIT AORTA
# Test summary: Aorta Vasodilation Assay, rabbit aorta rings (endothelium removed, phenylephrine-contracted)
# Parameters: species or system male New Zealand white rabbits
# Test conditions: Oryctolagus cuniculus, 20% O2, without methylene blue, read-out: IC50 (relaxation)
Answer in nM, number only, no unit symbol.

{"columns": ["Compound", "Value kind", "Readout unit", "Endpoint result"],
 "data": [
  ["CC(=O)N[C@@H](C(=O)Oc1ccccc1)C(C)(C)SN=O [(I), R^1 = PHENYL R^2 = METHYL]", "IC50", "nM", 65],
  ["O=[N+]([O-])OCC(CO[N+](=O)[O-])O[N+](=O)[O-] [NITROGLYCERIN, glyceryl trinitrate]", "IC50", "nM", 23]
]}

Consider the record given below.
Lookup: IC50 / RABBIT AORTA / CC(=O)N[C@@H](C(=O)O)C(C)(C)SN=O [SNAP, N-acetyl-3-(nitrosothio)-D-valine]
160
